# IC50 annotations
target: human HPK1 protein (Homo sapiens, UniProt Q92918); construct: recombinant human HPK1 protein (a.a. 1-346) was expressed in Sf9 insect cells; GST (N); purchased Signalchem M23-11G; host or cells: Sf9 insect cells (baculovirus); experiment: Human HPK1 protein TR-FRET assay; assay type: biochemical; settings: 1 mM ATP, Table 19
Sequence (Q92918 1-346): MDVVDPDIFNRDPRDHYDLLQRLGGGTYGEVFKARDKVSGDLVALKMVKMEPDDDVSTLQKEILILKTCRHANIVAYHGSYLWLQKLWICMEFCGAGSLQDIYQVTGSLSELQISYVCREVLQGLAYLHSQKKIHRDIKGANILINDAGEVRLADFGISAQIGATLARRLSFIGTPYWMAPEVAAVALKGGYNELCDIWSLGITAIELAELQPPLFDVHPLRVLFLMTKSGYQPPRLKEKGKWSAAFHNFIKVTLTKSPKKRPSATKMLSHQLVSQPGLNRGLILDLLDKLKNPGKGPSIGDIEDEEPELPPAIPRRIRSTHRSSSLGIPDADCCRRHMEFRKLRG

Example entries begin here.
compound	IC50
CCN1CCN(Cc2ccc(NC(=O)N3CCc4ccc(Oc5ccnc6[nH]c(C)cc56)cc4[C@@H]3C)cc2C(F)(F)F)CC1	< 500 nM
CCN1CCN(Cc2ccc(NC(=O)N3CCc4ccc(Oc5cc(NC)ncn5)cc4C3)cc2C(F)(F)F)CC1	< 500 nM
CCN1CCN(Cc2ccc(NC(=O)N3CCc4ccc(Oc5cc(C)nc6[nH]ccc56)cc4C3)cc2C(F)(F)F)CC1	500 to 5000 nM
CCN1CCN(Cc2ccc(NC(=O)N3CCc4ccc(Oc5ccnc6[nH]ccc56)cc4[C@@H]3C)cc2C(F)(F)F)C(=O)C1	500 to 5000 nM

Prompt line: For the compound CCN1CCN(Cc2ccc(NC(=O)C3CCc4ccc(Oc5ccnc6[nH]c(C)cc56)cc4N3C)cc2C(F)(F)F)CC1 (stereo not drawn) , give its measured IC50 value.
Response line: < 500 nM

Prompt line: For the compound `CN1CCC(Oc2ccc(NC(=O)N3CCc4ccc(Oc5ccnc6[nH]ccc56)cc4C3)cc2C(F)(F)F)CC1` , give its measured IC50 value.
Response line: < 500 nM

Prompt line: For the compound `CCN1CCN(Cc2ccc(NC(=O)N3CC(=O)c4ccc(Oc5ccnc6[nH]c(C)cc56)cc4C3)cc2C(F)(F)F)CC1` , give its measured IC50 value.
Response line: < 500 nM

Prompt line: For the compound `CCN1CCN(Cc2ccc(NC(=O)N3CCc4ncc(Oc5ccnc6[nH]ccc56)cc4C3)cc2C(F)(F)F)CC1` , give its measured IC50 value.
Response line: < 500 nM

Prompt line: For the compound `C[C@H]1c2cc(Oc3ccnc4[nH]ccc34)ccc2CCN1C(=O)Nc1ccc(CN2CCN(C)CC2)c(C(F)(F)F)c1` , give its measured IC50 value.
Response line: < 500 nM

Prompt line: For the compound CCN1CCN(Cc2ccc(NC(=O)N3CCc4cc(F)c(Oc5ccnc6[nH]ccc56)cc4C3C)cc2C(F)(F)F)CC1 (stereo not drawn) [IV-7] , give its measured IC50 value.
Response line: 500 to 5000 nM

Prompt line: For the compound CCN1CCN(Cc2ccc(NC(=O)N3Cc4cc(Oc5ccnc6[nH]c(C)cc56)ccc4C(C)C3)cc2C(F)(F)F)CC1 (stereo not drawn) [IV-19] , give its measured IC50 value.
Response line: < 500 nM

Prompt line: For the compound `C[C@H]1c2cc(Oc3ccnc4[nH]ccc34)ccc2CCN1C(=O)Nc1cc(C(F)(F)F)c(OC2CCN(C)CC2)cn1` , give its measured IC50 value.
Response line: < 500 nM

Prompt line: For the compound `CCN1CCN(Cc2ccc(NC(=O)N3CCc4ccc(Oc5ccnc6[nH]ccc56)cc4C3=O)cc2C(F)(F)F)CC1` , give its measured IC50 value.
Response line: 500 to 5000 nM

Prompt line: For the compound `CCN1CCN(Cc2ccc(NC(=O)N3CCc4ccc(Oc5c(Cl)cnc6[nH]ccc56)cc4C3)cc2C(F)(F)F)CC1` , give its measured IC50 value.
Response line: 500 to 5000 nM

Prompt line: For the compound `CCN1CCN(Cc2ccc(NC(=O)N3CCc4ccc(Oc5ccnn6cc(Cl)cc56)cc4C3)cc2C(F)(F)F)CC1` , give its measured IC50 value.
Response line: < 500 nM

Prompt line: For the compound `CCN1CCN(Cc2ccc(NC(=O)N3CCc4ncc(Oc5ncnc6[nH]ccc56)cc4C3)cc2C(F)(F)F)CC1` , give its measured IC50 value.
Response line: 500 to 5000 nM
